# Tested on: Puccinia recondita f. sp. tritici
# ASSAY DETAILS: Test C: test suspension sprayed on wheat seedlings, inoculated next day with Puccinia recondita f. sp. tritici (wheat leaf rust), visual disease rating
# Assay type: in vivo
# SETUP CONDITIONS: Rate 10 ppm test suspension, relative to the controls
QUANTITY KIND: Test C rating (% disease control) (%)
Numbers only, in %.

Recorded Test C rating (% disease control), per entry:
O=C(NCCC(F)(F)F)c1coc(COc2ccc(-c3noc(C(F)(F)F)n3)cc2)n1 | 68
O=C(NCCn1cccn1)c1csc(Cc2ccc(-c3noc(C(F)(F)F)n3)cc2)n1 | 100
COC(=O)c1coc(COc2ccc(-c3noc(C(F)(F)F)n3)cc2)n1 | 0

Ask | Consider the molecule CC(=O)NN=Cc1cnn(Cc2ccc(-c3noc(C(F)(F)F)n3)cc2)c1 and give its measured Test C rating (% disease control).
Reply | 100

====

# System: Zymoseptoria tritici
# ASSAY DETAILS: Test B: test suspension sprayed on wheat seedlings, inoculated next day with Zymoseptoria tritici (wheat leaf blotch), visual disease rating
# Assay type: in vivo
# SETUP CONDITIONS: 250 ppm test suspension, relative to the controls
Marks after values point to notes of the source that are not given here.
Record form. Attribute: Test B rating (% disease control). Fill in for each entry.

FC(F)(F)c1nc(-c2ccc(Cc3ccccc3)cc2)no1 [compound 451] | 8* %
O=C(c1ccc(Cc2ccc(-c3noc(C(F)(F)F)n3)cc2)o1)C(F)(F)F [compound 450] | 41* %
N#CCNC(=O)c1coc(COc2ccc(-c3noc(C(F)(F)F)n3)cc2)n1 [compound 468] | 22* %
O=C(NCCn1cccn1)c1csc(Cc2ccc(-c3noc(C(F)(F)F)n3)cc2)n1 [compound 396] | 28* %
O=C(NC1CCC(F)(F)CC1)c1coc(Cc2ccc(-c3noc(C(F)(F)F)n3)cc2)n1 [compound 395] | 0* %

For each of the compounds below, state Test B rating (% disease control).
1. OC(c1ccc(-c2noc(C(F)(F)F)n2)cc1)c1cccc(F)c1 (racemic) [compound 498]
2. OC(c1ccc(-c2noc(C(F)(F)F)n2)cc1)c1cccc(Cl)c1 (racemic) [compound 499]

Reply |
1: 43* %; 2: 48* %

Ask | Consider the compound O=C(NCC(F)(F)F)c1csc(Cc2ccc(-c3noc(C(F)(F)F)n3)cc2)n1 [compound 463] and give its measured Test B rating (% disease control).
Reply | 65* %

====

# System: Puccinia recondita f. sp. tritici
# ASSAY DETAILS: Test C: test suspension sprayed on wheat seedlings, inoculated next day with Puccinia recondita f. sp. tritici (wheat leaf rust), visual disease rating
# Format: in vivo
# SETUP CONDITIONS: Rate 10 ppm test suspension, relative to the controls
QUANTITY KIND: Test C rating (% disease control) (%)
Answers are plain numbers, in %.

Recorded Test C rating (% disease control), per entry:
N#CCNC(=O)c1csc(Cc2ccc(-c3noc(C(F)(F)F)n3)cc2)n1 | 100
O=C1N(Cc2ccc(-c3noc(C(F)(F)F)n3)cc2)CCc2cncn21 | 89
COCCNC(=O)c1csc(COc2ccc(-c3noc(C(F)(F)F)n3)cc2)n1 | 86

Ask | Consider the molecule CCCOC(=O)c1cnn(Cc2cc(OC)c(-c3noc(C(F)(F)F)n3)s2)c1 and give its measured Test C rating (% disease control).
Reply | 0
